Measured TGI values are reported for all entries that follow.
- System: RPMI-8226 leukemia
- method: NCI tumour cell line growth inhibition, 48 h

compound | TGI
CCCCCCCCCCCC(=O)OCC1OC(n2cc(F)c(=O)[nH]c2=O)C(N)C(OC(=O)CCCCCCCCCCC)C1O (stereo unspecified) | > 100 µM

If you can, please state the reported TGI value of CC(NS(C)(=O)=O)c1ccccc1 (stereo unspecified) .
> 100 µM

Param item = Cc1ccc(C(=O)C(C)N)cc1 (stereo unspecified) ; retrieve measured TGI.
> 100 µM

Endpoint output: TGI of Cc1ccc(/C=C/C(=O)c2c([O-])on[n+]2-c2ccccc2)cc1 . Value?
6.35 µM

====

- Tested on: NCI-H522 lung
- method: NCI tumour cell line growth inhibition, 48 h
observation_type: TGI (µM)
Express it in µM; write the number only.

The cases that follow already have their TGI on record.
compound | measured_value
CS(=O)(=O)CCNCc1ccc(-c2ccc3ncnc(Nc4ccc(OCc5cccc(C(F)(F)F)c5)cc4)c3c2)o1 | 8.91
C=C1c2c(cc3c(c2O)c(=O)c2ccccc2n3C)OC1(C)C | 9.49
O=C1CCCc2c1c1c(n2Cc2ccccc2)-c2ccccc2C1=O | 33.8
CCc1c2c(nc3cc4c(cc13)OCO4)-c1cc3c(c(=O)n1C2)COC(=O)[C@@]3(CC)OC(=O)CN | 0.239
CC[N+]1(C)CCC(O)(c2ccc(Cl)cc2)C(C(=O)c2ccc(Cl)cc2)C1 (configuration not stated) | 3.51

Suppose we examine the compound CCCN(CCC)c1ccc(CO)c(C)c1 ; what TGI value has been reported?
60.5

Fill in: TGI of CC[C@@]1(O)C(=O)OCc2c1cc1n(c2=O)Cc2c-1nc1ccccc1c2CC[Si](C)(C)C is ___
1.55

Data request, read-out TGI, for CCCN1C(=O)CCC2=C1CCc1c2ccc(Cl)c1Cl
91.4

Fill in the blank: the reported TGI of Cc1csc2nc(-c3ccc([N+](=O)[O-])cc3)c(/C=N/N=C(N)N)n12 is ____.
3.08

Report TGI for CCN(CC)c1ccc2c(c1)Oc1nc(N)c(C#N)c(N)c1C2Sc1ccc(SC)cc1 (configuration not stated) please.
4.31

Entry under review: CCSC1=N/C(=C\c2ccccc2O)C(Nc2ccc(C)cc2)=N1 . Reported TGI?
94.4

Any idea what TGI was measured for O=C1/C(=C/c2ccccc2Cl)N=C(c2ccccc2)N1Cc1ccco1 ?
66.7

Item C#C[C@]1(O)CC[C@H]2[C@@H]3CC=C4c5sc(N=C(N)N)nc5CC[C@]4(C)[C@H]3CC[C@@]21C has what recorded TGI?
3.67

What value of measured TGI is listed for CC(C)C(C/C=C1/CC(CO)(COC(=O)CC(C(C)C)C(C)C)OC1=O)C(C)C (configuration not stated) ?
26.5

Suppose we examine the compound COc1ccc(-c2n[nH]nc2-c2csc3ccccc23)cc1OC ; what TGI value has been reported?
2.81

TGI for CC1C(c2ccc3c(c2)OCO3)c2cc3c(cc2OC1N1CCCC1)OCO3 (configuration not stated) ?
80.4

Requested field: TGI. Item: CCC[CH2][Sn]([CH2]CCC)([O]C(=O)c1cccc(F)c1)[O]C(=O)c1cccc(F)c1
0.91

Any idea what its TGI is? The compound is O=C(O)CSc1cc(-c2ccccc2)nc2ccccc12
70.9

For C=C(C=O)c1c2c(nc3ccccc13)C(=O)c1ccccc1C2=O , what is its reported TGI?
2.09

====

- Tested on: KM12 colon
- method: NCI tumour cell line growth inhibition, 48 h; in the data active = GI50 below about 0.43 µM; inactive = the rest
Respond using exactly one of the listed classes: True for active, False for inactive

Example entries and their recorded answers appear below.
molecule | tested_system | label
[Cu+2].[O-]c1ccc2ccccc2c1N=Nc1ccccc1.[O-]c1ccc2ccccc2c1N=Nc1ccccc1 | KM12 colon | False
COc1ccc2c(c1)CC[C@@H]1[C@@H]2CC[C@@]2(C)[C@H]1CC1(CCCCC1)[C@@H]2O | KM12 colon | False
COC(CCP(=O)(c1ccccc1)c1ccccc1)(C(=O)c1ccccc1)c1ccccc1 (centres undefined) | KM12 colon | False
COc1cnc2c(c1)C(=O)c1c-2n(CCCn2ccnc2)c(=O)c2cc(Cl)ccc12 | KM12 colon | True
ClCCN(CCCl)c1ccc(-n2cnc3c(Cl)ncnc32)cc1 | KM12 colon | False
CC(=O)/C=C/C1=C(c2cc3ccccc3s2)c2ccccc2CC1 | KM12 colon | False
CN1CCN(c2ccc3c4c(cccc24)C(=O)N(CCN2CCN(CCCN4CCN(CCN5C(=O)c6cccc7c(N8CCN(C)CC8)ccc(c67)C5=O)CC4)CC2)C3=O)CC1 | KM12 colon | False
CCC(Sc1nnc2c3ccccc3n(CC)c2n1)C(=O)Nc1ccccc1OC (centres undefined) | KM12 colon | False

Query molecule follows.
Record lookup: outcome of this test for CC1(C)N=C(N)N=C(N)N1c1ccc(F)c(C(F)(F)F)c1 ?
False

====

Listed below: TGI values for each entry.
- System: TK-10 renal
- method: NCI tumour cell line growth inhibition, 48 h

The examples below pair each entry with its known result.
compound | observation_type | measured_value
COc1cc(-c2[nH]ccc2Cl)oc1C1=C2N=C3C=C2C(C(C)C)C1CCCCCCCC3 (stereo not given) | TGI | 5.19 µM
COC(=O)C1=Nc2c(C)nn(-c3ccccc3)c2N=C(c2ccc(C)cc2)C1 | TGI | > 10 µM
CCC(Sc1nnc2c3ccccc3n(CC)c2n1)C(=O)Nc1ccccc1OC (stereo not given) | TGI | > 100 µM
O=C1c2ccccc2-c2nc(-c3cccnc3)cc3c2c1nc1ccccc13 | TGI | > 100 µM

Using the record for O=c1/c(=C/c2ccc(Cl)cc2Cl)sc2nc3ccccc3n12 , report its TGI.
> 100 µM

====

Documented TGI across a set of compounds
- Test system: SF-295 CNS
- method: NCI tumour cell line growth inhibition, 48 h

compound | observation_type | measured_value
NC(=O)CCC(NCc1c2ccccc2[n+]([O-])c2ccccc12)C(=O)O (stereo unspecified) | TGI | > 100 µM
COc1ccc2c3c1OC1C(=O)C=CC4(O)C(C2)NCC[C@@]314 (stereo partly specified) | TGI | 14.9 µM
CS(=O)(=O)CCNCc1ccc(-c2ccc3ncnc(Nc4ccc(OCc5cccc(C(F)(F)F)c5)cc4)c3c2)o1 | TGI | 11.3 µM
N#Cc1[nH]c(=O)n(-c2ccc(Cl)cc2)c1N | TGI | > 10 µM
N=C(c1ccccc1)N(O)C1CCCCC1 | TGI | > 100 µM
CCc1c2c(nc3cc4c(cc13)OCO4)-c1cc3c(c(=O)n1C2)COC(=O)[C@@]3(CC)OC(=O)CN | TGI | < 0.0166 µM

Fill blank: measured TGI of the compound Cc1cccc(Nc2cn(COCc3ccccc3)c(=O)[nH]c2=O)c1 is ____.
> 100 µM

Need TGI, item CC(=O)O[C@@H]1CO[C@H]2O[C@H]3[C@@H](C(C=O)=C[C@H](O)[C@@H]4C5=C(C(C)C)CC[C@]5(C)CC[C@@]34C)[C@@]2(O)C1=O
3.98 µM

Entry CCCCCCCCCCCCCCCc1cc(O)ccc1N : reported TGI = ?
> 100 µM

Find the recorded TGI belonging to C/C(=N\Nc1ccc([N+](=O)[O-])cc1[N+](=O)[O-])c1ccc2ccccc2n1 and report it.
> 100 µM

====

- Test system: A498 renal
- method: NCI tumour cell line growth inhibition, 48 h
observation_type: TGI

molecule | TGI
N#Cc1c(-c2ccccc2)/c(=C\O)c(=O)n2c1nc1ccccc12 | > 100 µM
O=C(Cn1nc(Br)c(Br)c1Br)c1ccccc1 | 85.8 µM
NNC(=O)CNC(=O)CSc1nnc(COc2ccc(Cl)cc2)n1-c1ccccc1 | > 100 µM

// query TGI value for entry O=C(Nc1cc(C(F)(F)F)ccc1F)Nc1n[nH]c2ccccc12
> 100 µM

Which TGI value is on record for Cc1cc(N(CCC#N)CCC#N)ccc1/C(N=Nc1cccc([N+](=O)[O-])c1)=N/NC(=O)c1cc(Cl)ccc1O ?
49.2 µM

I would be grateful if you could share the reported TGI for O=C1C2C=CC1C1C(=O)OC(=O)C21 (stereo unspecified) .
> 100 µM

====

# maps each entry to its TGI
- Tested on: MDA-MB-435
- method: NCI tumour cell line growth inhibition, 48 h
Your answer is read as µM, so omit the unit and give the number.

compound_smiles | TGI, µM
N#Cc1ccccc1C#C/C=C\C#Cc1ccc(OCCCNC(=O)c2cc3ccccc3[nH]2)cc1 | 42.7

Turning now to a further record.
Reported TGI for MDA-MB-435, given O=C1CCCc2c1c1c(n2Cc2ccccc2)-c2ccccc2C1=O ?
38.2

====

- System: HCT-116 colon
- method: NCI tumour cell line growth inhibition, 48 h; in the data active = GI50 below about 0.43 µM; inactive = the rest
Hi there, use one of these labels in your reply, thanks! yes = active, no = inactive

Some solved cases for reference:
compound | label
O=C1/C(=C/c2ccccc2Cl)N=C(c2ccccc2)N1Cc1ccco1 | no
CC(=O)/C=C/C1=C(c2cc3ccccc3s2)c2ccccc2CC1 | no
COc1ccc(O)c(C(=O)c2ccc(C(=O)O[C@@H]3CCCNC[C@H]3NC(=O)c3ccncc3)cc2)c1F | no
CCc1c2c(nc3cc4c(cc13)OCO4)-c1cc3c(c(=O)n1C2)COC(=O)[C@@]3(CC)OC(=O)CN | yes
COC(CCP(=O)(c1ccccc1)c1ccccc1)(C(=O)c1ccccc1)c1ccccc1 (stereo not drawn) | no
CCCCCCCCCCCCCCCc1cc(O)ccc1N | no
CN1CCN(c2ccc3c4c(cccc24)C(=O)N(CCN2CCN(CCCN4CCN(CCN5C(=O)c6cccc7c(N8CCN(C)CC8)ccc(c67)C5=O)CC4)CC2)C3=O)CC1 | no
CC(ONC(=O)c1cc(C(F)(F)F)cc(C(F)(F)F)c1)C(=O)Nc1ccc(Cl)cc1 (stereo not drawn) | no

Test call for this compound, please: CCOC(=O)CC1(O)C=CC(=O)C=C1
no

Hi, do you know how Brc1ccc([I+]c2ccc(Br)cc2)cc1 came out in this test?
no

Look up the recorded call for C(=C1c2ccccc2-c2ccccc21)c1ccccn1 in this test.
no

Could you check what this test reported for CC(C)=CCc1c(O)cc(/C=C/c2cc(O)c3c(c2)C[C@@H]2C(C)(C)[C@H](O)[C@H](O)C[C@@]2(C)O3)cc1O ?
yes

Recorded test call requested for O=C1c2ccccc2C(=O)N1c1ccc(S(=O)(=O)Nc2ncccn2)cc1
no
